Some compounds, each annotated with its measured pEC50.
# System: ER-alpha MCF7
# Protocol description: ER-alpha MCF7 HCS EC50; stated as measured by in vitro cell proliferation assays of Examples 902 and 903
# Type: cell-based
# Protocol conditions: Homo sapiens, MCF7, MCF7 cells; Table 2
# Protocol: The CellTiter-Glo® Luminescent Cell Viability Assay is a homogeneous method to determine the number of viable cells in culture based on quantitation of the ATP present, which signals the presence of metabolically active cells. […] Day 5—Develop Plates, Thaw Cell Titer Glo Buffer at room temperature: Remove Cell Plates from 37° C. and equilibrate to room temperature for about 30 minutes. […] Read luminescence on Analyst HT Plate Reader (half second per well). […]
pEC50: −log10 of the molar value.
Test readout: pEC50

1) C[C@@H]1Cc2c([nH]c3ccccc23)[C@@H](c2c(F)cc(NC3CN(CCCF)C3)cc2F)N1CC(C)(C)F [Example 145] = 10.02
2) C[C@@H]1Cc2c([nH]c3ccccc23)[C@@H](c2ccc(NCCN3CC(CF)C3)cc2)N1S(C)(=O)=O [Example 325] = 9.00
3) CC1(C)Cc2c([nH]c3ccccc23)[C@@H](c2c(F)cc(NC3CN(CCCF)C3)cc2F)N1CC(F)F [Example 405] = 9.64
4) C[C@@H]1Cc2c([nH]c3ccccc23)[C@@H](c2c(F)cc(OCCN3CC(CF)C3)cc2F)N1CC1CC(F)(F)C1 [Example 146] = 8.00
5) C[C@H]1Cc2c([nH]c3c(F)cccc23)[C@H](c2c(F)cc(NC3CN(CCCF)C3)cc2F)N1CC(F)(F)CO [Example 422] = 7.43
6) C[C@@H]1Cc2c([nH]c3ccccc23)[C@@H](c2ccc(OCCN3CC(CF)C3)cc2)N1S(C)(=O)=O [Example 180] = 9.65
7) C[C@H]1Cc2c([nH]c3ccc(F)cc23)[C@H](c2c(F)cc(NC3CN(CCCF)C3)cc2F)N1C[C@](C)(F)CO [Example 432] = 8.49
8) C[C@@H]1Cc2c([nH]c3ccccc23)[C@@H](c2c(F)cc(OC3CN(CCCF)C3)cc2F)N1CC(C)(C)C#N [Example 316] = 10.14
9) C[C@H]1Cc2c([nH]c3ccc(F)cc23)[C@H](c2c(F)cc(OC3CN(CCCF)C3)cc2F)N1CC(F)(F)F [Example 357] = 7.58
10) C[C@@H]1Cc2c([nH]c3ccccc23)[C@@H](c2c(F)cc(OC3CN(CC4CCC4)C3)cc2F)N1CC(C)(C)F [Example 189] = 9.00
11) C[C@@H]1Cc2c([nH]c3ccccc23)[C@@H](c2ccc(OC3CN(CCCF)C3)cc2)N1S(C)(=O)=O [Example 330] = 8.70
12) C[C@@H]1Cc2c([nH]c3cc(F)ccc23)[C@@H](c2c(F)cc(NC3CN(CCCF)C3)cc2F)N1C[C@](C)(F)CO [Example 414] = 9.92
13) C[C@@H]1Cc2c([nH]c3c(F)cccc23)[C@@H](c2c(F)cc(NC3CN(CCCF)C3)cc2F)N1CC(F)(F)F [Example 410] = 9.92
14) C[C@@H]1Cc2c([nH]c3ccccc23)[C@H](c2ccc(OCCN3CC(CF)C3)cc2F)N1C(=O)C(C)(C)F [Example 229] = 7.60
15) C[C@@H]1Cc2c([nH]c3ccccc23)[C@@H](c2c(F)cc(OCCN3CC(CF)C3)cc2F)N1C[C@@H](CO)C(F)(F)F [Example 318] = 9.00
16) C[C@@H]1Cc2c([nH]c3ccccc23)[C@@H](c2ccc(OCCN3CC(CF)C3)cc2)N1C[C@](C)(F)CO [Example 276] = 9.51
17) C[C@@H]1Cc2c([nH]c3ccccc23)[C@@H](c2cc(F)c(OC3CN(CCCCCF)C3)c(F)c2)N1CC(C)(C)F [Example 338] = 9.00
18) C[C@@H]1Cc2c([nH]c3ccccc23)[C@@H](c2c(F)cc(OC3CN(CCCF)C3)cc2F)N1C[C@@H](CO)C(F)(F)F [Example 376] = 9.00
19) C[C@H]1Cc2c([nH]c3c(F)cccc23)[C@H](c2c(F)cc(NC3CN(CCCF)C3)cc2F)N1CC(F)(F)F [Example 409] = 7.59
20) C[C@@H]1Cc2c([nH]c3ccccc23)[C@@H](c2c(F)cc(NC3CN(CCCF)C3)cc2F)N1CC(F)(F)CO [Example 340] = 9.69
21) C[C@H]1Cc2c([nH]c3cc(F)ccc23)[C@H](c2c(F)cc(NC3CN(CCCF)C3)cc2F)N1C[C@@](C)(F)CO [Example 415] = 8.02
22) CC(C)(F)CN1[C@H](c2c(F)cc(OCCN3CC(CF)C3)cc2F)c2[nH]c3ccccc3c2CC1(C)C [Example 257] = 8.96
23) C[C@@H]1Cc2c([nH]c3ccccc23)[C@@H](c2ccc(OC3CN(CCCF)C3)c(F)c2)N1CC(C)(C)F [Example 267] = 9.13
24) CCS(=O)(=O)N1[C@H](c2c(F)cc(OC3CN(CCCF)C3)cc2F)c2[nH]c3ccccc3c2C[C@H]1C [Example 285] = 8.70
25) C[C@@H]1Cc2c([nH]c3ccccc23)[C@H](c2c(F)cc(OCCN3CC(CF)C3)cc2F)N1CC(F)F [Example 306] = 8.52
26) C[C@@H]1Cc2c([nH]c3ccc(F)cc23)[C@@H](c2c(F)cc(OC3CN(CCCF)C3)cc2F)N1CC(F)F [Example 385] = 10.13
27) C[C@@H]1Cc2c([nH]c3c(F)cccc23)[C@@H](c2c(F)cc(OC3CN(CCCF)C3)cc2F)N1CC(C)(C)F [Example 261] = 9.55

Recorded values, source patent US20250114338A1.
